From: the supplement of paper PMC12042874

Assay: amyloid nucleation score (Sup35N fusion, yeast selection) (log enrichment); library NNK1; higher = more nucleation; inactive = no reads after selection;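 also: zero at mode of non-aggregating sequences after 7 days selection at 30°C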
Lab note: anything with amyloid nucleation score at or over 0.2 counts as True; the rest go in False.

Would you please look over these solved cases?
Record `FDNTGDCTNFYQLSDWSP` ; criterion: amyloid nucleation score no lower than 0.2. Met?
True

Hello, I need to know if `AHFIFCKTFTLCLLLFCKLT` has measured amyloid nucleation score not below 0.2. Thanks!
False

Further cases:
Check the entry `LAAVQTDMFISTLLECLDDK` : does amyloid nucleation score equal or exceed 0.2?
True

Textbook exercise: given the entry `RYNCVDV` , state whether its amyloid nucleation score is greater than or equal to 0.2.
False
